- Tested on: 922993-354-T-J3-PDC complex spheroids, viability
- Procedure text: Anticancer human tumor 922993-354-T-J3-PDC patient-derived endometrial carcinoma cell line growth inhibition [GQUAD]
- Study conditions: second compound 0.0316 µM; first compound 0.316 µM; stronger effect = lower value
- Description: DNA G-quadruplex Stabilizer Agents in Combinations in Complex Spheroids A high-throughput screen of multi-cell type tumor spheroids was designed to identify active combinations of DNA G-quadruplex stabilizer agents and targeted small molecules. […] Compounds. […] If the clinical Cmax for an agent had not been determined, the highest concentration tested was 10 microM. […]
Label y when viability, T/C is strictly below 60%; otherwise label n.

CC1COCCN1c1cc(C2(S(C)(=N)=O)CC2)nc(-c2ccnc3[nH]ccc23)n1 (stereo not given) + Cc1[nH]c2ccc(F)cc2c1-c1nc2c3cccnc3c3ncccc3c2[nH]1 :: n
C=CC(=O)N1CCN(c2nc(=O)n(-c3c(C)ccnc3C(C)C)c3nc(-c4c(O)cccc4F)c(F)cc23)C(C)C1 (stereo not given) + Cc1[nH]c2ccc(F)cc2c1-c1nc2c3cccnc3c3ncccc3c2[nH]1 :: n
COc1ncnc(C2CC2)c1-c1ncc2cnn(Cc3ccc(-c4nc(C(F)(F)F)cn4C(C)C)cc3)c2n1 + Cc1cnc(CNC(=O)c2c(=O)c3ccc(N4CCCN(C)CC4)nc3n3c2sc2ccccc23)cn1 :: n

Please find the next compound below.
A record lists CCc1c2c(nc3ccc(O)cc13)-c1cc3c(c(=O)n1C2)COC(=O)[C@]3(O)CC + CN(C)c1ccc(Nc2c3ccc(NC(=O)CCN4CCCC4)cc3nc3cc(NC(=O)CCN4CCCC4)ccc23)cc1 . Is its viability, T/C below 60%?
y

---

- Test system: 922993-354-T-J3-PDC complex spheroids, viability
- Procedure text: Anticancer human tumor 922993-354-T-J3-PDC cell line growth inhibition [GQUAD];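 note: spheroids exposed to compounds for seven days; 100% = DMSO vehicle control viability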
- Study conditions: second compound 10 µM; first compound 0.00316 µM; stronger effect = lower value
Assay endpoint: viability, T/C (%)
One number for each entry, in %.

CC[C@@]1(O)C(=O)OCc2c1cc1n(c2=O)Cc2cc3c(CN(C)C)c(O)ccc3nc2-1 + CN(C)c1ccc(Nc2c3ccc(NC(=O)CCN4CCCC4)cc3nc3cc(NC(=O)CCN4CCCC4)ccc23)cc1 :: 115
CC[C@@]1(O)C(=O)OCc2c1cc1n(c2=O)Cc2cc3c(CN(C)C)c(O)ccc3nc2-1 + Cc1[nH]c2ccc(F)cc2c1-c1nc2c3cccnc3c3ncccc3c2[nH]1 :: 91.1
Cc1[nH]c2ccccc2c1CCNCc1ccc(/C=C/C(=O)NO)cc1 + CN(C)c1ccc(Nc2c3ccc(NC(=O)CCN4CCCC4)cc3nc3cc(NC(=O)CCN4CCCC4)ccc23)cc1 :: 118
CCc1c2c(nc3ccc(O)cc13)-c1cc3c(c(=O)n1C2)COC(=O)[C@]3(O)CC + Cc1[nH]c2ccc(F)cc2c1-c1nc2c3cccnc3c3ncccc3c2[nH]1 :: 65.4
Cc1[nH]c2ccccc2c1CCNCc1ccc(/C=C/C(=O)NO)cc1 + Cc1[nH]c2ccc(F)cc2c1-c1nc2c3cccnc3c3ncccc3c2[nH]1 :: 109

Dear colleague, could you please provide viability, T/C for the compounds listed below?
1. Cn1ncnc1[C@H]1c2n[nH]c(=O)c3cc(F)cc(c23)N[C@@H]1c1ccc(F)cc1 + CN(C)c1ccc(Nc2c3ccc(NC(=O)CCN4CCCC4)cc3nc3cc(NC(=O)CCN4CCCC4)ccc23)cc1
2. Cc1[nH]c2ccccc2c1CCNCc1ccc(/C=C/C(=O)NO)cc1 + Cc1cnc(CNC(=O)c2c(=O)c3ccc(N4CCCN(C)CC4)nc3n3c2sc2ccccc23)cn1
3. CCc1c2c(nc3ccc(O)cc13)-c1cc3c(c(=O)n1C2)COC(=O)[C@]3(O)CC + CN(C)c1ccc(Nc2c3ccc(NC(=O)CCN4CCCC4)cc3nc3cc(NC(=O)CCN4CCCC4)ccc23)cc1
4. Cn1ncnc1[C@H]1c2n[nH]c(=O)c3cc(F)cc(c23)N[C@@H]1c1ccc(F)cc1 + Cc1[nH]c2ccc(F)cc2c1-c1nc2c3cccnc3c3ncccc3c2[nH]1

[118, 40.3, 89.1, 93]

---

- System: 922993-354-T-J3-PDC complex spheroids, viability
- Procedure text: Anticancer human tumor 922993-354-T-J3-PDC cell line growth inhibition [GQUAD];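 note: spheroids exposed to compounds for seven days; 100% = DMSO vehicle control viability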
- Study conditions: second compound 3.16 µM; first compound 0.00999 µM; stronger effect = lower value
Assay endpoint: viability, T/C (%)
One number for each entry, in %.

Dear colleague, could you please provide viability, T/C for the compounds listed below?
1. CC[C@@]1(O)C(=O)OCc2c1cc1n(c2=O)Cc2cc3c(CN(C)C)c(O)ccc3nc2-1 + Cc1[nH]c2ccc(F)cc2c1-c1nc2c3cccnc3c3ncccc3c2[nH]1
2. Cn1ncnc1[C@H]1c2n[nH]c(=O)c3cc(F)cc(c23)N[C@@H]1c1ccc(F)cc1 + CN(C)c1ccc(Nc2c3ccc(NC(=O)CCN4CCCC4)cc3nc3cc(NC(=O)CCN4CCCC4)ccc23)cc1
3. CC[C@@]1(O)C(=O)OCc2c1cc1n(c2=O)Cc2cc3c(CN(C)C)c(O)ccc3nc2-1 + CN(C)c1ccc(Nc2c3ccc(NC(=O)CCN4CCCC4)cc3nc3cc(NC(=O)CCN4CCCC4)ccc23)cc1

[93.1, 109, 99.6]

Dear colleague, could you please provide viability, T/C for the compounds listed below?
1. CCc1c2c(nc3ccc(O)cc13)-c1cc3c(c(=O)n1C2)COC(=O)[C@]3(O)CC + Cc1cnc(CNC(=O)c2c(=O)c3ccc(N4CCCN(C)CC4)nc3n3c2sc2ccccc23)cn1
2. CC[C@@]1(O)C(=O)OCc2c1cc1n(c2=O)Cc2cc3c(CN(C)C)c(O)ccc3nc2-1 + Cc1cnc(CNC(=O)c2c(=O)c3ccc(N4CCCN(C)CC4)nc3n3c2sc2ccccc23)cn1
3. CCc1c2c(nc3ccc(O)cc13)-c1cc3c(c(=O)n1C2)COC(=O)[C@]3(O)CC + Cc1[nH]c2ccc(F)cc2c1-c1nc2c3cccnc3c3ncccc3c2[nH]1

1: 46.5; 2: 63.4; 3: 53.6

Dear colleague, could you please provide viability, T/C for the compounds listed below?
1. Cc1[nH]c2ccccc2c1CCNCc1ccc(/C=C/C(=O)NO)cc1 + CN(C)c1ccc(Nc2c3ccc(NC(=O)CCN4CCCC4)cc3nc3cc(NC(=O)CCN4CCCC4)ccc23)cc1
2. CCc1c2c(nc3ccc(O)cc13)-c1cc3c(c(=O)n1C2)COC(=O)[C@]3(O)CC + CN(C)c1ccc(Nc2c3ccc(NC(=O)CCN4CCCC4)cc3nc3cc(NC(=O)CCN4CCCC4)ccc23)cc1
3. Cn1ncnc1[C@H]1c2n[nH]c(=O)c3cc(F)cc(c23)N[C@@H]1c1ccc(F)cc1 + Cc1[nH]c2ccc(F)cc2c1-c1nc2c3cccnc3c3ncccc3c2[nH]1
4. Cn1ncnc1[C@H]1c2n[nH]c(=O)c3cc(F)cc(c23)N[C@@H]1c1ccc(F)cc1 + Cc1cnc(CNC(=O)c2c(=O)c3ccc(N4CCCN(C)CC4)nc3n3c2sc2ccccc23)cn1
5. Cc1[nH]c2ccccc2c1CCNCc1ccc(/C=C/C(=O)NO)cc1 + Cc1cnc(CNC(=O)c2c(=O)c3ccc(N4CCCN(C)CC4)nc3n3c2sc2ccccc23)cn1
6. Cc1[nH]c2ccccc2c1CCNCc1ccc(/C=C/C(=O)NO)cc1 + Cc1[nH]c2ccc(F)cc2c1-c1nc2c3cccnc3c3ncccc3c2[nH]1

[94.8, 36.3, 106, 44, 41.6, 80]

---

Give measured viability, T/C for each item. Keep answers brief.
- System: 922993-354-T-J3-PDC complex spheroids, viability
- Procedure text: Anticancer human tumor 922993-354-T-J3-PDC cell line growth inhibition [GQUAD];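 note: spheroids exposed to compounds for seven days; 100% = DMSO vehicle control viability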
- Study conditions: second compound 0.1 µM; first compound 1 µM; stronger effect = lower value
Numbers only, in %.

CC1COCCN1c1cc(C2(O)CC3CCC(C2)O3)c2cnn(-c3ccn[nH]3)c2n1 (stereo not given) + Cc1[nH]c2ccc(F)cc2c1-c1nc2c3cccnc3c3ncccc3c2[nH]1 :: 33.3
CC(=O)O[C@H]1C(=O)[C@@]2(C)[C@H]([C@H](OC(=O)c3ccccc3)[C@]3(O)C[C@H](OC(=O)[C@H](O)[C@@H](NC(=O)c4ccccc4)c4ccccc4)C(C)=C1C3(C)C)[C@]1(OC(C)=O)CO[C@@H]1C[C@@H]2O + CN(C)c1ccc(Nc2c3ccc(NC(=O)CCN4CCCC4)cc3nc3cc(NC(=O)CCN4CCCC4)ccc23)cc1 :: 101
Cc1cccc(N(C)C(=O)C2C(O)CCN2c2nc(C)cc(C(F)(F)F)c2C#N)c1 (stereo not given) + CN(C)c1ccc(Nc2c3ccc(NC(=O)CCN4CCCC4)cc3nc3cc(NC(=O)CCN4CCCC4)ccc23)cc1 :: 103

Dear colleague, could you please provide viability, T/C for the compounds listed below?
1. CC1COCCN1c1cc(C2(S(C)(=N)=O)CC2)nc(-c2ccnc3[nH]ccc23)n1 (stereo not given) + Cc1cnc(CNC(=O)c2c(=O)c3ccc(N4CCCN(C)CC4)nc3n3c2sc2ccccc23)cn1
2. CC1COCCN1c1cc(C2(O)CC3CCC(C2)O3)c2cnn(-c3ccn[nH]3)c2n1 (stereo not given) + Cc1cnc(CNC(=O)c2c(=O)c3ccc(N4CCCN(C)CC4)nc3n3c2sc2ccccc23)cn1
3. COc1cc(C2c3cc4c(cc3C(OC3OC5COC(C)OC5C(O)C3O)C3COC(=O)C23)OCO4)cc(OC)c1O (stereo not given) + CN(C)c1ccc(Nc2c3ccc(NC(=O)CCN4CCCC4)cc3nc3cc(NC(=O)CCN4CCCC4)ccc23)cc1
4. Nc1ccn(C2OC(CO)C(O)C2(F)F)c(=O)n1 (stereo not given) + Cc1[nH]c2ccc(F)cc2c1-c1nc2c3cccnc3c3ncccc3c2[nH]1
5. CCCS(=O)(=O)Nc1ccc(F)c(C(=O)c2c[nH]c3ncc(-c4ccc(Cl)cc4)cc23)c1F + Cc1cnc(CNC(=O)c2c(=O)c3ccc(N4CCCN(C)CC4)nc3n3c2sc2ccccc23)cn1

[61, 21, 85.2, 21.1, 45.5]

Dear colleague, could you please provide viability, T/C for the compounds listed below?
1. C#Cc1c(F)ccc2cc(O)cc(-c3ncc4c(N5CC6CCC(C5)N6)nc(OCC56CCCN5CC(F)C6)nc4c3F)c12 (stereo not given) + CN(C)c1ccc(Nc2c3ccc(NC(=O)CCN4CCCC4)cc3nc3cc(NC(=O)CCN4CCCC4)ccc23)cc1
2. O=C(c1cc(Cc2n[nH]c(=O)c3ccccc23)ccc1F)N1CCN(C(=O)C2CC2)CC1 + CN(C)c1ccc(Nc2c3ccc(NC(=O)CCN4CCCC4)cc3nc3cc(NC(=O)CCN4CCCC4)ccc23)cc1
3. COc1cc(C2c3cc4c(cc3C(OC3OC5COC(C)OC5C(O)C3O)C3COC(=O)C23)OCO4)cc(OC)c1O (stereo not given) + Cc1[nH]c2ccc(F)cc2c1-c1nc2c3cccnc3c3ncccc3c2[nH]1
4. CC(C)(O)C1CCC(Nc2ccc3ncc(-c4cccc(C(F)(F)F)c4)n3n2)CC1 (stereo not given) + Cc1cnc(CNC(=O)c2c(=O)c3ccc(N4CCCN(C)CC4)nc3n3c2sc2ccccc23)cn1
5. CC1COCCN1c1cc(C2(S(C)(=N)=O)CC2)nc(-c2ccnc3[nH]ccc23)n1 (stereo not given) + CN(C)c1ccc(Nc2c3ccc(NC(=O)CCN4CCCC4)cc3nc3cc(NC(=O)CCN4CCCC4)ccc23)cc1

1. 100
2. 86
3. 92.6
4. 59.6
5. 85.2
